test.description: in vivo
reported.conditions: male, white nondescript (outbred), mouse, ip
Description: The study of acute daily toxicity of Compound I was carried out on white nondescript male mice with body weight 25-28 g, which lived in habitual conditions in vivarium and received feed and water ad libitum. Single dose of Compound I was administered intraperitoneally. The animals were under observation for 2 days after the dosing. The dose levels of Compound I used in the toxicity study were as follows: 800 mg/kg, 1000 mg/kg, 1200 mg/kg, 1500 mg/kg, 1600 mg/kg. […]
measurement.type: LD50 at 2 days (mg/kg)

[
  {
    "molecule": "O=C([O-])CC[C@H](NC(=O)c1cncc(O)c1)C(=O)[O-].[Ca+2]",
    "unit.symbol": "mg/kg",
    "reading": 1150
  },
  {
    "molecule": "O=C(O)CC[C@H](NC(=O)c1cncc(O)c1)C(=O)O [Nooglutyl, N-(5-hydroxynicotinoyl)-L-glutamic acid, reference compound]",
    "unit.symbol": "mg/kg",
    "reading": 1200
  }
]
